Collected RSAI values appear next to each entry.
# SYSTEM: Chromosomal, induced beta-lactamase enzyme (Pseudomonas aeruginosa, UniProt P24735)
# Construct: Normally, therefore, the beta-lactamase has to be extracted from the cells for the purpose of the present invention; endogenous in cells; host or cells: Pseudomonas aeruginosa 1937E grown with ampicillin
# PROCEDURE_SUMMARY: Competitive assay with nitrocefin (RSAI)
# Format: biochemical, Ps.aerug. 1937E + ampicillin
Write the value as a bare number.

Worked set:
CO/N=C(\C(=O)N[C@@H]1C(=O)N2C(C(=O)O)=C(COC(N)=O)CS[C@H]12)c1ccco1	0.0001
Cc1onc(-c2ccccc2Cl)c1C(=O)N[C@@H]1C(=O)N2[C@@H]1SC(C)(C)[C@@H]2C(=O)O	0.00017
Cn1nnnc1SCC1=C(C(=O)O)N2C(=O)[C@@H](NC(=O)[C@H](O)c3ccccc3)[C@H]2SC1	5
CC1(C)S[C@@H]2[C@H](NC(=O)[C@H](NC(=O)N3CCN(S(C)(=O)=O)C3=O)c3ccccc3)C(=O)N2[C@H]1C(=O)O	0.26
CC1(C)S[C@@H]2[C@H](NC(=O)[C@H](NC(=O)N3CCNC3=O)c3ccccc3)C(=O)N2[C@H]1C(=O)O	0.05
CC1=C(C(=O)O)N2C(=O)[C@@H](NC(=O)[C@H](N)C3=CCC=CC3)[C@H]2SC1	1
CC1(C)S[C@@H]2[C@H](NC(=O)C(C(=O)O)c3ccccc3)C(=O)N2[C@H]1C(=O)O (some centres unmarked)	0.008
CO/N=C(\C(=O)N[C@@H]1C(=O)N2C(C(=O)O)=CCS[C@H]12)c1csc(N)n1	500

Next item in the queue.
query: GET RSAI | system: Chromosomal, induced beta-lactamase enzyme (Pseudomonas aeruginosa, UniProt P24735) | item: CC1(C)S[C@@H]2[C@H](NC(=O)Cc3ccccc3)C(=O)N2[C@H]1C(=O)O
result: 0.13

----------
Collected RSAI values appear next to each entry.
# SYSTEM: OXA-1 (Escherichia coli)
# PROCEDURE_SUMMARY: Competitive assay with nitrocefin (RSAI)
# Format: biochemical, E. coli 1527E
# Set-up: the beta-lactamase has to be extracted from the cells for the purpose of the present invention; made in house; host or cells: E. coli 1527E according to the earlier reading (crude cell extract)
Write the value as a bare number.

Worked set:
CC1(C)S[C@@H]2[C@H](NC(=O)[C@H](NC(=O)N3CCNC3=O)c3ccccc3)C(=O)N2[C@H]1C(=O)O	1.4
CC1(C)S[C@@H]2[C@H](NC(=O)[C@H](NC(=O)N3CCN(S(C)(=O)=O)C3=O)c3ccccc3)C(=O)N2[C@H]1C(=O)O	1.9

query: GET RSAI | system: OXA-1 (Escherichia coli) | item: CC(=O)OCC1=C(C(=O)O)N2C(=O)[C@@H](NC(=O)Cc3cccs3)[C@H]2SC1
result: 4

----------
# SYSTEM: TEM-1 (Escherichia coli)
# PROCEDURE_SUMMARY: Competitive assay with nitrocefin (RSAI)
# Type: biochemical, E. coli 2136E
# Design: the beta-lactamase has to be extracted from the cells for the purpose of the present invention; made in house; host or cells: E. coli 2136E (plasmid-bearing strain; crude cell extract)
Classification field: condition met = RSAI at or over 4; condition not met = RSAI under 4.

CC1(C)S[C@@H]2[C@H](NC(=O)[C@H](NC(=O)N3CCNC3=O)c3ccccc3)C(=O)N2[C@H]1C(=O)O	condition not met
CC1=C(C(=O)O)N2C(=O)[C@@H](NC(=O)[C@H](N)C3=CCC=CC3)[C@H]2SC1	condition met
CO/N=C(\C(=O)N[C@@H]1C(=O)N2C(C(=O)O)=C(CSc3nc(=O)c(=O)[nH]n3C)CS[C@H]12)c1csc(N)n1	condition met
CC1(C)S[C@@H]2[C@H](NC(=O)[C@H](N)c3ccc(O)cc3)C(=O)N2[C@H]1C(=O)O	condition not met
CC1(C)S[C@@H]2[C@H](NC(=O)[C@H](NC(=O)N3CCN(S(C)(=O)=O)C3=O)c3ccccc3)C(=O)N2[C@H]1C(=O)O	condition not met

query: Is the recorded value of RSAI equal to or greater than 4 for this molecule? CC1(C)S[C@@H]2[C@H](NC(=O)C(C(=O)O)c3ccccc3)C(=O)N2[C@H]1C(=O)O (stereo partly drawn)
result: condition not met

----------
Collected RSAI values appear next to each entry.
# SYSTEM: Chromosomal, constitutive beta-lactamase enzyme (Enterobacter cloacae)
# Construct: Normally, therefore, the beta-lactamase has to be extracted from the cells for the purpose of the present invention; endogenous in cells
# PROCEDURE_SUMMARY: Competitive assay with nitrocefin (RSAI)
# Format: biochemical, E. cloacae
Marks after values point to notes of the source that are not given here.

CCN1CCN(C(=O)N[C@@H](C(=O)N[C@@H]2C(=O)N3C(C(=O)O)=C(CSc4nnnn4C)CS[C@H]23)c2ccc(O)cc2)C(=O)C1=O	1.3
CC1(C)[C@H](C(=O)O)N2C(=O)C[C@H]2S1(=O)=O	6.5*
C[C@@H](O)[C@H]1C(=O)N2C(C(=O)O)=C(SCCN=CN)C[C@H]12	0.03
CC1(C)S[C@@H]2[C@H](NC(=O)[C@H](NC(=O)N3CCN(S(C)(=O)=O)C3=O)c3ccccc3)C(=O)N2[C@H]1C(=O)O	0.4

Next item in the queue.
query: Input CO/N=C(\C(=O)N[C@@H]1C(=O)N2C(C(=O)O)=C(CSc3nc(=O)c(=O)[nH]n3C)CS[C@H]12)c1csc(N)n1 , output reported RSAI.
result: 0.0003*

----------
Collected RSAI values appear next to each entry.
# SYSTEM: PSE-2 (Pseudomonas aeruginosa)
# PROCEDURE_SUMMARY: Competitive assay with nitrocefin (RSAI)
# Type: biochemical, Ps.aerug. 1973E
# Set-up: Normally, therefore, the beta-lactamase has to be extracted from the cells for the purpose of the present invention; endogenous in cells
Write the value as a bare number.

CC1(C)S[C@@H]2[C@H](NC(=O)C(C(=O)O)c3ccccc3)C(=O)N2[C@H]1C(=O)O (stereo partly drawn)	5.5

query: Input CC1(C)S[C@@H]2[C@H](NC(=O)[C@H](N)c3ccccc3)C(=O)N2[C@H]1C(=O)O , output reported RSAI.
result: 0.85

query: Input CO/N=C(\C(=O)N[C@@H]1C(=O)N2C(C(=O)O)=C(COC(C)=O)CS[C@H]12)c1csc(N)n1 , output reported RSAI.
result: 9.6

query: Input CC(=O)OCC1=C(C(=O)O)N2C(=O)[C@@H](NC(=O)Cc3cccs3)[C@H]2SC1 , output reported RSAI.
result: 0.54

query: Input Cc1nnc(SCC2=C(C(=O)O)N3C(=O)[C@@H](NC(=O)Cn4cnnn4)[C@H]3SC2)s1 , output reported RSAI.
result: 1.4

query: Input Cc1onc(-c2ccccc2Cl)c1C(=O)N[C@@H]1C(=O)N2[C@@H]1SC(C)(C)[C@@H]2C(=O)O , output reported RSAI.
result: 4.5

----------
Collected RSAI values appear next to each entry.
# SYSTEM: TEM-1 (Escherichia coli, UniProt P62593)
# PROCEDURE_SUMMARY: Competitive assay with nitrocefin (RSAI)
# Format: biochemical, E. coli 2136E
# Set-up: the beta-lactamase has to be extracted from the cells for the purpose of the present invention; made in house; host or cells: E. coli 2136E (plasmid-bearing strain; crude cell extract)
Marks after values point to notes of the source that are not given here.

Worked set:
CCN1CCN(C(=O)N[C@@H](C(=O)N[C@@H]2C(=O)N3C(C(=O)O)=C(CSc4nnnn4C)CS[C@H]23)c2ccc(O)cc2)C(=O)C1=O	8
Cn1nnnc1SCC1=C(C(=O)O)N2C(=O)[C@@H](NC(=O)[C@H](O)c3ccccc3)[C@H]2SC1	11
O=C(O)[C@H]1/C(=C/CO)O[C@@H]2CC(=O)N21	0.003*
CO/N=C(\C(=O)N[C@@H]1C(=O)N2C(C(=O)O)=C(COC(C)=O)CS[C@H]12)c1csc(N)n1	400
CC1(C)S[C@@H]2[C@H](NC(=O)[C@H](C(=O)O)c3ccsc3)C(=O)N2[C@H]1C(=O)O	0.035

query: GET RSAI | system: TEM-1 (Escherichia coli, UniProt P62593) | item: CO/N=C(\C(=O)N[C@@H]1C(=O)N2C(C(=O)O)=CCS[C@H]12)c1csc(N)n1
result: 1000

query: GET RSAI | system: TEM-1 (Escherichia coli, UniProt P62593) | item: CC1(C)S[C@@H]2[C@H](NC(=O)Cc3ccccc3)C(=O)N2[C@H]1C(=O)O
result: 3

----------
# Test system: PSE-3
# PROCEDURE_SUMMARY: Competitive assay with nitrocefin (RSAI)
# Assay type: biochemical, Ps.aerug. 1920E
Values of RSAI strictly less than 2 map to YES, and values of at least 2 map to NO.

CC1(C)S[C@@H]2[C@H](NC(=O)Cc3ccccc3)C(=O)N2[C@H]1C(=O)O	YES
CC1(C)[C@H](C(=O)O)N2C(=O)C[C@H]2S1(=O)=O	YES
CC(C)(O/N=C(\C(=O)N[C@@H]1C(=O)N2C(C(=O)[O-])=C(C[n+]3ccccc3)CS[C@H]12)c1csc(N)n1)C(=O)O	NO
Cn1nnnc1SCC1=C(C(=O)O)N2C(=O)[C@@H](NC(=O)[C@H](O)c3ccccc3)[C@H]2SC1	YES
CC1(C)S[C@@H]2[C@H](NC(=O)[C@H](N)c3ccccc3)C(=O)N2[C@H]1C(=O)O	YES
O=C(O)[C@H]1/C(=C/CO)O[C@@H]2CC(=O)N21	YES

Here is the next item to consider.
query: Please indicate whether the reported RSAI of CC1=C(C(=O)O)N2C(=O)[C@@H](NC(=O)[C@H](N)C3=CCC=CC3)[C@H]2SC1 is strictly below 2.
result: NO
